Data provenance: patent US8633245B2

- experimental_target: recombinant rat PAI-1 (Rattus norvegicus, UniProt P20961)
- Sequence (P20961 24-402): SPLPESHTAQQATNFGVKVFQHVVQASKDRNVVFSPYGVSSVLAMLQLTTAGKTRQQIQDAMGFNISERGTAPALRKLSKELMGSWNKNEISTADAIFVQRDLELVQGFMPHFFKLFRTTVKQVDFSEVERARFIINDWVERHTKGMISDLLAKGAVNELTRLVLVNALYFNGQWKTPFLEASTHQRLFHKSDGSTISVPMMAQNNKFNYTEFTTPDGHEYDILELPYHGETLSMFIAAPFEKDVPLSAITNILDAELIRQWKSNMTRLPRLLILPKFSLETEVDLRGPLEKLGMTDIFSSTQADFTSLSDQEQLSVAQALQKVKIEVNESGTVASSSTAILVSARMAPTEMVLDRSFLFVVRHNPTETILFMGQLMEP
- procedure_details: Test Example 3: rat PAI-1 inhibitory activity (as Test Example 2 with rat PAI-1)
- condition_summary: rat PAI-1; calculated from the inhibition rates
readout_name: pIC50
One number for each entry, as −log10 of the molar value.

Please review the entries below; each comes with its answer.
>>> test_value("CCCCCOc1ccc(-c2ccc(OC(F)(F)F)cc2)cc1N(CCCCc1ccccc1)C(=O)C(=O)O")
6.00
>>> test_value("CC(C)(C)c1ccc(Oc2cc(-c3ccc(OC(F)(F)F)cc3)ccc2CCC(=O)O)cc1")
5.66
>>> test_value("CC(C)(C)c1ccc(COc2c(OCC(=O)O)cccc2-c2ccc(OC(F)(F)F)cc2)cc1")
5.61
>>> test_value("CC(C)(C)c1ccc(COc2ccc(Oc3ccc(OC(F)(F)F)cc3)cc2CCC(=O)O)cc1")
5.54
>>> test_value("CC(C)(C)c1ccc(COc2ccc(-c3ccc(OC(F)(F)F)cc3)cc2OCC(=O)O)cc1")
5.66

The following molecules each have a reported value; give each one's pIC50.
1. CC(C)(C)c1ccc(Oc2cccc(-c3ccc(OC(F)(F)F)cc3)c2OCC(=O)O)cc1
2. CC(C)(C)c1ccc(Oc2cc(-c3ccc(OC(F)(F)F)cc3)ccc2OCC(=O)O)cc1

OUT:
5.43
5.70

IN: Would you kindly share the measured pIC50 for O=C(O)CCc1c(Oc2ccc(OC(F)(F)F)cc2)cccc1Oc1ccc(OC(F)(F)F)cc1 ?
OUT: 5.45
